# System: Human platelet-rich plasma (blood platelets)
# measurementNotes: Collagen-induced blood platelet aggregation (aggregometer method of Born; maximum aggregation velocity)
# Type: cell-based
# conditions: human citrated platelet-rich plasma, 10 min preincubation at 37° C., collagen fibrils
testReadout: EC50 (nM)
Respond with the bare value in nM.

Human platelet-rich plasma (blood platelets) assay, compound COc1cc(-c2nc(C(C)(C)C)c(C(C)(C)C)[nH]2)cc(OC)c1OC , recorded EC50 = 720

Tested system Human platelet-rich plasma (blood platelets); EC50 recorded for CC(C)(C)c1nc(-c2ccc3c(c2)OCO3)[nH]c1C(C)(C)C was 550

The measured EC50 that CC(C)(C)c1nc(-c2ccccc2)[nH]c1C(C)(C)C [4,5-Di-t-butyl-2-phenylimidazole, 4,5-di-t-butyl-2-phenylimidazole] showed for Human platelet-rich plasma (blood platelets) is 600

Considering CC(C)(C)c1nc(-c2ccc(F)cc2)[nH]c1C(C)(C)C , its EC50 with Human platelet-rich plasma (blood platelets) was recorded as 500

Entry COc1cc(-c2nc(C(C)(C)C)c(C(C)(C)C)[nH]2)cc2c1OCO2 : EC50 on Human platelet-rich plasma (blood platelets) = 14400
